tested target: Adenosine receptors; A1 & A3 (Homo sapiens) (UniProt P30542+P0DMS8)
assay comment: Ratio of Ki for human adenosine A1 receptor to Ki for human adenosine A3 receptor
Each entry below lists one item and its recorded Ratio Ki value.

- compound: "Cc1cc(-c2nc3c([nH]2)C2=NC(C)CN2C(=O)N3Cc2ccccc2)n(C)n1 (racemic)"
  tested target: "Adenosine receptors; A1 & A3 (Homo sapiens) (UniProt P30542+P0DMS8)"
  sign qualifier: ">"
  Ratio Ki: 290
- compound: "C=CCN1C(=O)N2CC(C)N=C2c2[nH]c(-c3cc(OC)no3)nc21 (racemic)"
  tested target: "Adenosine receptors; A1 & A3 (Homo sapiens) (UniProt P30542+P0DMS8)"
  sign qualifier: ">"
  Ratio Ki: 1400
- compound: "C=CCN1C(=O)N2CC(C)N=C2c2[nH]c(-c3cc(C)n(C)n3)nc21 (racemic)"
  tested target: "Adenosine receptors; A1 & A3 (Homo sapiens) (UniProt P30542+P0DMS8)"
  sign qualifier: ">"
  Ratio Ki: 359
- compound: "C=CCN1C(=O)N2CC(CC)N=C2c2[nH]c(-c3cc(C)nn3C)nc21 (racemic)"
  tested target: "Adenosine receptors; A1 & A3 (Homo sapiens) (UniProt P30542+P0DMS8)"
  sign qualifier: "="
  Ratio Ki: 170
- compound: "CCC1CN2C(=O)N(Cc3ccccc3)c3nc(-c4cc(C)nn4C)[nH]c3C2=N1 (racemic)"
  tested target: "Adenosine receptors; A1 & A3 (Homo sapiens) (UniProt P30542+P0DMS8)"
  sign qualifier: "="
  Ratio Ki: 60
- compound: "CC1CN2C(=O)N(Cc3ccccc3)c3nc(-c4cc(OCc5ccccc5)nn4C)[nH]c3C2=N1 (racemic)"
  tested target: "Adenosine receptors; A1 & A3 (Homo sapiens) (UniProt P30542+P0DMS8)"
  sign qualifier: "="
  Ratio Ki: 57
- compound: "CCC1CN2C(=O)N(Cc3ccccc3)c3nc(-c4cc(OC)nn4C)[nH]c3C2=N1 (racemic)"
  tested target: "Adenosine receptors; A1 & A3 (Homo sapiens) (UniProt P30542+P0DMS8)"
  sign qualifier: "="
  Ratio Ki: 105

----------
Each entry below lists one item and its recorded pKi value.
Sequence of the target: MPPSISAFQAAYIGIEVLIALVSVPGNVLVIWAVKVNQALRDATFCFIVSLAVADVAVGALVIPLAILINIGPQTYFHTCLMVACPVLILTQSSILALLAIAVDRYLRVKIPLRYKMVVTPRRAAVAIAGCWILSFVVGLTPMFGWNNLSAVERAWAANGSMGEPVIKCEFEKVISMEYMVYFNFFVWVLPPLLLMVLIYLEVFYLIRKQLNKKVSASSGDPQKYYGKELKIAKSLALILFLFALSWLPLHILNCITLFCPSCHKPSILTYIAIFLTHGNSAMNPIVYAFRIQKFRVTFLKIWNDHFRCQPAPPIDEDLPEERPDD
pKi: −log10 of the molar value.
property name: pKi

- molecule: "Cc1cc(-c2nc3c([nH]2)C2=NC(C)CN2C(=O)N3Cc2ccccc2)nn1C (stereo not drawn)"
  property name: "pKi"
  result: "< 5.30"
- molecule: "C=CCN1C(=O)N2CC(C)N=C2c2[nH]c(-c3cc(OC)no3)nc21 (racemic)"
  property name: "pKi"
  result: "< 5.30"
- molecule: "CCC1CN2C(=O)N(Cc3ccccc3)c3nc(-c4cc(OC)no4)[nH]c3C2=N1 (racemic)"
  property name: "pKi"
  result: 6.31
